System: S. Typhimurium SL1344 (sifB::gfp) in RAW 264.7 macrophages
protocol.summary: SAFIRE macrophage assay: intracellular bacterial load (GFP signal within macrophages)
Format: cell-based, Salmonella enterica serotype Typhimurium
stated.conditions: 25 uM; 'Toxic' given instead of a score
Procedure: In SAFIRE, we used MATLAB software to count the number of macrophages that remain adherent and retain the red fluorescence of MitoTracker, an indicator of voltage across the mitochondrial inner membrane. […] Non-toxic analogs that reduced bacterial load by at least 60% at 5 µM and 25 µM in SAFIRE, as compared with DMSO, progressed and were evaluated in SAFIRE across eight or more concentrations, ranging from 0.001 µM to 50 µM (n = 2). […]
I'd appreciate it if you could label each record using 25 uM Avg Antibacterial Score and these ranges: lower range: < 30; middle range: ≥ 30 and < 60; upper range: ≥ 60

>>> df
                                    compound         class
 0  OC(COc1ccc(Cl)c(Cl)c1)CN1CCCC(N2CCOCC2)C1 (stereo not shown)  middle range
 1  N[C@H]1CC[C@H](NCC(O)COc2cc(Cl)cc(Cl)c2)CC1 (stereo partly shown)   lower range
 2  OC(CNC1CCNCC1)COc1ccccc1Cl (stereo not shown)   upper range
 3  CNC1CCN(C[C@@H](O)COc2ccc(Cl)c(Cl)c2)C1 (stereo partly shown)  middle range
 4  OC(COc1ccc(F)cc1)CN1CCC(Nc2ncccn2)CC1 (stereo not shown)   upper range
 5  OC(COc1ccc(F)cc1)CN1CCC(Nc2nccc(C(F)(F)F)n2)CC1 (stereo not shown)   lower range
 6  CN1CCC(N(C)CC(O)COc2ccc(Cl)c(Cl)c2)C1 (stereo not shown)   lower range
 7  N#Cc1ccccc1OCC(O)CN1CCC(Nc2nccc(C(F)(F)F)n2)C1 (stereo not shown)  middle range
 8  CCN(CC(O)COc1ccc(Cl)c(Cl)c1)CC1CCOC1 (stereo not shown)   lower range
 9  OC(COc1cccc2[nH]ccc12)CN1CCC(Nc2nccc(C(F)(F)F)n2)CC1 (stereo not shown)   lower range
10  OC(COc1ccc(Cl)c(Cl)c1)CN1CCCNCC1 (stereo not shown)  middle range
11  OC(COc1ccc(Cl)c(Cl)c1)CN1CCn2cnnc2C1 (stereo not shown)   upper range
12  N#Cc1ccc(OCC(O)CN2CCC(N)C2)cc1 (stereo not shown)   upper range
13  NC1CCN(CC(O)COc2ccc(Cl)cc2Cl)CC1 (stereo not shown)   lower range
14  OC(COc1ccc(Cl)c(Cl)c1)CN1CCn2c([3F])nnc2C1 (stereo not shown)   upper range
15  OC(COc1ccc(Cl)c(Cl)c1)CN1CCN(C2CC2)CC1 (stereo not shown)   upper range

====

25 uM Avg Antibacterial Score by entry:
System: S. Typhimurium SL1344 (sifB::gfp) in RAW 264.7 macrophages
protocol.summary: SAFIRE macrophage assay: intracellular bacterial load (GFP signal within macrophages)
Assay type: cell-based, Salmonella enterica serotype Typhimurium
stated.conditions: 25 uM; 'Toxic' given instead of a score
parameter: 25 uM Avg Antibacterial Score

>>> print(df.to_string())
                                    compound  observed_value
 0  OC1CCN(CC(O)COc2ccc(Cl)c(Cl)c2)CC1 (centres unmarked) [CU164]              82
 1  N#Cc1ccc(OCC(O)CN2CCC(Nc3ncccn3)CC2)cc1 (centres unmarked) [CU050]              95
 2  NC1CCN(CC(O)COc2ccc(Cl)cc2Cl)C1 (centres unmarked) [CU166]              19
 3  OC(COc1cnsn1)CN1CCC(Nc2nccc(C(F)(F)F)n2)CC1 (centres unmarked) [CU118]              80
 4  OC(COc1ccc(Cl)c(Cl)c1)CN1CC2CC1CO2 (centres unmarked) [CU225]              73
 5  OC(COc1ccc(Cl)c(Cl)c1)CN1CC2CCC(C1)O2 (centres unmarked) [CU226]             108
 6  COc1ccc(OCC(O)CN2CCC(Nc3ncccn3)CC2)cc1 (centres unmarked) [CU046]              75
 7  O=C(C1CCN(CC(O)COc2ccc(Cl)c(Cl)c2)CC1)N1CCCC1 (centres unmarked) [CU062]              48
 8  CO[C@@H]1CCN(CC(O)COc2ccc(Cl)c(Cl)c2)C1 (some centres unmarked) [CU127]              46
 9  COC(=O)c1ccc(OCC(O)CN2CCC(Nc3nccc(C(F)(F)F)n3)C2)cc1 (centres unmarked) [CU091]            9.52
10  NC1CCN(CC(O)COc2ccccc2)C1 (centres unmarked) [CU151]              91
11  NC1CCCN(CC(O)COc2ccc(Cl)c(Cl)c2)C1 (centres unmarked) [CU144]              29

====

Tested on: S. Typhimurium SL1344 (sifB::gfp) in RAW 264.7 macrophages
protocol.summary: SAFIRE macrophage assay: intracellular bacterial load (GFP signal within macrophages)
Format: cell-based, Salmonella enterica serotype Typhimurium
stated.conditions: 25 uM; 'Toxic' given instead of a score
Output Condition met for records whose 25 uM Avg Antibacterial Score is lower than 80, Condition not met for records at or above 80.

                                   compound              class
0  OC(COc1ccc(Cl)cc1)CN1CCC(Nc2nccs2)CC1 (stereo not shown)      Condition met
1  OC(COc1ccc(F)cc1F)CN1CCC(Nc2ncccn2)CC1 (stereo not shown)  Condition not met
2  CN1CCN(CC(O)COc2ccc(Cl)c(Cl)c2)CC1=O (stereo not shown)  Condition not met
3  OC(COc1ccc(Cl)c(Cl)c1)CN1CCC(F)(F)C1 (stereo not shown)  Condition not met
4  OC(COc1ccc(Cl)cc1)CN1CCC(NC2CC2)C1 (stereo not shown)      Condition met
5  CNC(=O)C1CCN(CC(O)COc2ccc(Cl)c(Cl)c2)CC1 (stereo not shown)  Condition not met
6  NC1CCN(CC(O)COc2ccc(Cl)cc2)CC1 (stereo not shown)      Condition met

====

25 uM Avg Cell # Score by entry:
Tested on: RAW 264.7 macrophages
protocol.summary: SAFIRE macrophage assay: host toxicity (adherent macrophage count, morphology)
Format: cell-based
stated.conditions: 25 uM
parameter: 25 uM Avg Cell # Score

In [3]: df
Out[3]:
                                    molecule            system_name               parameter  observed_value
 0  OC(COc1ccccc1)CN1CCC(Nc2nccc(C(F)(F)F)n2)CC1 (centres unmarked)  RAW 264.7 macrophages  25 uM Avg Cell # Score              57
 1  CSc1ccc(OCC(O)CN2CCC(Nc3nccc(C(F)(F)F)n3)CC2)cc1 (centres unmarked)  RAW 264.7 macrophages  25 uM Avg Cell # Score              43
 2                CC(C)(C)c1nc(NC(=N)N)sc1Br  RAW 264.7 macrophages  25 uM Avg Cell # Score              66
 3  OC(COc1ccccc1Cl)CN1CCC(Nc2nccc(C(F)(F)F)n2)CC1 (centres unmarked)  RAW 264.7 macrophages  25 uM Avg Cell # Score             114
 4  CC(C)N(CCNc1nccc(C(F)(F)F)n1)CC(O)COc1ccc(Cl)c(Cl)c1 (centres unmarked)  RAW 264.7 macrophages  25 uM Avg Cell # Score              94
 5  COCCN1CCN(CC(O)COc2ccc(Cl)c(Cl)c2)CC1 (centres unmarked)  RAW 264.7 macrophages  25 uM Avg Cell # Score             115
 6  NC1CCN(CC(O)COc2ccc(F)cc2F)C1 (centres unmarked)  RAW 264.7 macrophages  25 uM Avg Cell # Score             113
 7  OC(COc1ccc(Cl)c(Cl)c1)CN1CCC2(CCOCC2)C1 (centres unmarked)  RAW 264.7 macrophages  25 uM Avg Cell # Score              88
 8  NC1CCN(CC(O)COc2ccc(Cl)cc2)C1 (centres unmarked)  RAW 264.7 macrophages  25 uM Avg Cell # Score             109
 9  N[C@@H]1CCN(CC(O)COc2ccc(Cl)c(Cl)c2)C1 (some centres unmarked)  RAW 264.7 macrophages  25 uM Avg Cell # Score              98
10  CN1CCC(N(C)CC(O)COc2ccc(Cl)c(Cl)c2)C1 (centres unmarked)  RAW 264.7 macrophages  25 uM Avg Cell # Score              95
11  OC(COc1ccc2c(c1)OCO2)CN1CCC(Nc2nccc(C(F)(F)F)n2)C1 (centres unmarked)  RAW 264.7 macrophages  25 uM Avg Cell # Score             102
12  OC(COc1ccc(Cl)c(Cl)c1)CN1CCCN(c2nccc(C(F)(F)F)n2)CC1 (centres unmarked)  RAW 264.7 macrophages  25 uM Avg Cell # Score              99
13  OC(COc1ccc(Cl)c(Cl)c1)CN1CC2CC(C1)O2 (centres unmarked)  RAW 264.7 macrophages  25 uM Avg Cell # Score             100
14  OC(COc1ccc(Cl)cc1Cl)CN1CCC(Nc2nccc(C(F)(F)F)n2)C1 (centres unmarked)  RAW 264.7 macrophages  25 uM Avg Cell # Score              78
15  N#Cc1ccc(OCC(O)CN2CCC(Nc3ncccn3)CC2)cc1 (centres unmarked)  RAW 264.7 macrophages  25 uM Avg Cell # Score             113
16  CC(C)C(=O)NC1CCN(CC(O)COc2ccc(Cl)c(Cl)c2)C1 (centres unmarked)  RAW 264.7 macrophages  25 uM Avg Cell # Score              94
17  NCC1CCN(CC(O)COc2cc(Cl)cc(Cl)c2)C1 (centres unmarked)  RAW 264.7 macrophages  25 uM Avg Cell # Score              94
18  OC(CNCCNc1nccc(C(F)(F)F)n1)COc1ccc(Cl)c(Cl)c1 (centres unmarked)  RAW 264.7 macrophages  25 uM Avg Cell # Score              65
19  N#Cc1ccccc1OCC(O)CN1CCC(Nc2nccc(C(F)(F)F)n2)C1 (centres unmarked)  RAW 264.7 macrophages  25 uM Avg Cell # Score              79
20  NC(=O)C1CCN(CC(O)COc2ccc(Cl)c(Cl)c2)C1 (centres unmarked)  RAW 264.7 macrophages  25 uM Avg Cell # Score              87
21  OC(CNC1(c2ccccc2)CC1)COc1ccc(Cl)c(Cl)c1 (centres unmarked)  RAW 264.7 macrophages  25 uM Avg Cell # Score              39
22  NC1CCN(CC(O)COc2ccc(Cl)c(Cl)c2)CC1 (centres unmarked)  RAW 264.7 macrophages  25 uM Avg Cell # Score              43
23  OC(COc1ccc(Cl)c(Cl)c1)CN1CCC(F)(F)C1 (centres unmarked)  RAW 264.7 macrophages  25 uM Avg Cell # Score              71
24  COc1ccc(OCC(O)CN2CCC(Nc3ncccn3)CC2)cc1 (centres unmarked)  RAW 264.7 macrophages  25 uM Avg Cell # Score             173
25  OC(COc1ccc(Cl)c(Cl)c1)CN1CCC(F)C1 (centres unmarked)  RAW 264.7 macrophages  25 uM Avg Cell # Score              86
26  CNC1CCN(C[C@H](O)COc2ccc(Cl)c(Cl)c2)C1 (some centres unmarked)  RAW 264.7 macrophages  25 uM Avg Cell # Score             126
27  COc1cccc(OCC(O)CN2CCC(Nc3nccc(C(F)(F)F)n3)CC2)c1 (centres unmarked)  RAW 264.7 macrophages  25 uM Avg Cell # Score              93
28                 c1ccc2c(CN3CCNCC3)cccc2c1  RAW 264.7 macrophages  25 uM Avg Cell # Score             121
29  O=C(C1CCN(CC(O)COc2ccc(Cl)c(Cl)c2)CC1)N1CCCC1 (centres unmarked)  RAW 264.7 macrophages  25 uM Avg Cell # Score             145
30  N#Cc1cccc(OCC(O)CN2CCC(Nc3nccc(C(F)(F)F)n3)CC2)c1 (centres unmarked)  RAW 264.7 macrophages  25 uM Avg Cell # Score              85
31  N[C@H]1CC[C@H](NCC(O)COc2cc(Cl)cc(Cl)c2)CC1 (some centres unmarked)  RAW 264.7 macrophages  25 uM Avg Cell # Score              96
32  OC(COc1ccc(Cl)c(Cl)c1)CN1CCN(Cc2cccc3ccccc23)CC1 (centres unmarked)  RAW 264.7 macrophages  25 uM Avg Cell # Score              18
33  OC(COc1ccc(Cl)c(Cl)c1)CN1CCn2c([3F])nnc2C1 (centres unmarked)  RAW 264.7 macrophages  25 uM Avg Cell # Score             106
34  CC(=O)Nc1ccc(OCC(O)CN2CCC(Nc3nccc(C(F)(F)F)n3)CC2)cc1 (centres unmarked)  RAW 264.7 macrophages  25 uM Avg Cell # Score              86
35  OC(COc1ccc(Cl)c(Cl)c1)CN1CC2CC1CO2 (centres unmarked)  RAW 264.7 macrophages  25 uM Avg Cell # Score             101
36  OC(COc1ccc(Cl)c(Cl)c1)CN1CCC(n2ccnc2)CC1 (centres unmarked)  RAW 264.7 macrophages  25 uM Avg Cell # Score              91
37  OC(COc1cc(Cl)cc(Cl)c1)CN1CCN(Cc2cccc3ccccc23)CC1 (centres unmarked)  RAW 264.7 macrophages  25 uM Avg Cell # Score              15
38  CN(C)CC1COCCN1CC(O)COc1ccc(Cl)c(Cl)c1 (centres unmarked)  RAW 264.7 macrophages  25 uM Avg Cell # Score             106
39  OC(COc1cccc(Br)c1)CN1CCC(Nc2nccc(C(F)(F)F)n2)CC1 (centres unmarked)  RAW 264.7 macrophages  25 uM Avg Cell # Score              41
40  OC(COc1cccc(C(F)(F)F)c1)CN1CCC(Nc2nccc(C(F)(F)F)n2)C1 (centres unmarked)  RAW 264.7 macrophages  25 uM Avg Cell # Score              72
